Tested on: SK-OV-3 ovarian
Experiment: NCI-60 one-dose screen, 48 h (100 = growth as untreated, 0 = no growth, -100 = all killed)
Details: 10 µM unless noted
Description: Growth inhibition of the SK-OV-3 human tumor cell line is measured as a screen for anti-cancer activity. Cells are grown in 96 well plates and exposed to the test compound for 48 hours. Compounds are tested at a single concentration, which is 10^-5 M for most compounds. The reported endpoint is percent growth (GI% or GIPRCNT), where numbers from 0 - 100% represent growth inhibition, and numbers from -100% - 0 represent cell death. For example, a value of 40 represents 60% growth inhibition. […]
This is part of a sample that, as a whole, favours compounds with a hit. Of some 83,000 tested, about 20% had one in any assay.
QUANTITY MEASURED: growth (%)

compound=Cc1c(Cl)cccc1NC(=O)c1sc2nc3c(cc2c1N)CCCCC3 measured=47.8
compound=O=C(CCCC(=O)Nc1ccc(-n2nnc3cc(Cl)c(Cl)cc32)cc1)Nc1ccc(-n2nnc3cc(Cl)c(Cl)cc32)cc1 measured=31
compound=O=c1nc(-c2ccccc2)c2cc(-c3ccc(N4CCCC4)nc3)ccc2[nH]1 measured=80.6
compound="O=C(Nc1ccc(N=Cc2ccccc2O)cc1)NC1C=c2ccccc2=CC1 (stereo unspecified)" measured=103
compound=COc1cc(N=Nc2cc(S(=O)(=O)O)cc3cc(S(=O)(=O)O)cc(O)c23)c(C)cc1N=Nc1c(S(=O)(=O)O)cc2cc(Nc3ccccc3)ccc2c1O measured=102
compound=C=C(C)[C@@H]1CC[C@]2(C(=O)NCCCO)CC[C@]3(C)[C@H](CC[C@@H]4[C@@]5(C)CCCNC(C)(C)[C@@H]5CC[C@]43C)[C@@H]12 measured=85.5
compound=CC(=O)O[C@@H]1C[C@]2(C)[C@H]3[C@H](O)C[C@@H]4C5=CC(C)(C)CC[C@]5(C)CC[C@@]4(C)[C@]3(C)CC[C@H]2C(C)(C)[C@H]1O measured=107
compound=Cc1cc(NC(=O)CNc2nc(Oc3ccc(F)cc3)nc(-c3ccc(F)cc3)n2)ccc1Cl measured=93.7
compound=CCN1CCN(c2ccc(NC(=O)Nc3nc4ccc(-c5ccccc5OC)cc4s3)cc2)CC1 measured=-12.5
compound=CCOC(=O)c1c(C)nc2c(c1N)/C(=C/c1cccs1)C(=O)N2c1ccc(OC)cc1 measured=36.6
compound=CCOC(=O)c1ccc(Nc2ncnc3ccc(NC(=O)c4ccccc4)cc23)cc1 measured=100

* * *

System: SF-539 CNS
Assay: NCI-60 one-dose screen, 48 h
Settings: 10 µM unless noted
Procedure: Cells are grown in 96 well plates and exposed to the test compound for 48 hours. Compounds are tested at a single concentration, which is 10^-5 M for most compounds. The reported endpoint is percent growth (GI% or GIPRCNT), where numbers from 0 - 100% represent growth inhibition, and numbers from -100% - 0 represent cell death. For example, a value of 40 represents 60% growth inhibition. A value of 0 means no net growth occurred over the course of the experiment. […]
This is part of a sample that, as a whole, favours compounds with a hit. Of some 83,000 tested, about 20% had one in any assay. Activity calls are given as the source filed them. Rule for the calls: active = growth percent below 10; inactive = the rest.
Possible outcomes: Yes = active, No = inactive

molecule="Cc1nc2sc(C(=O)Nc3cccc4ccccc34)c(N)c2cc1C(C)O (stereo not given)" subject_of_test="SF-539 CNS" category_label=Yes
molecule=C#C[C@@]1(O)[C@@H](CO)O[C@@H](n2cc(F)c3c(N)ncnc32)[C@@H]1O subject_of_test="SF-539 CNS" category_label=Yes
molecule=Cc1cccc2nc3c(n12)C(=O)C(=O)c1ccccc1-3 subject_of_test="SF-539 CNS" category_label=No
molecule=Nc1c(C(=O)Nc2ccccn2)sc2nc3c(cc12)CCCCCC3 subject_of_test="SF-539 CNS" category_label=Yes
molecule=COc1ccc(/C=C/C(=O)/C=C(/C=C/c2ccc(OC)c(OC)c2)OB(F)F)cc1OC subject_of_test="SF-539 CNS" category_label=No
molecule="OCCNc1nc(NCCO)nc(Nc2ccc(C3=NN(c4ccc(Cl)cc4)C(c4ccc(Cl)cc4)C3)cc2)n1 (stereo not given)" subject_of_test="SF-539 CNS" category_label=No
molecule=C#C[C@@]1(O)[C@@H](CO)O[C@@H](n2cc(Cl)c3c(N)ccnc32)[C@@H]1O subject_of_test="SF-539 CNS" category_label=No
molecule=O=c1nc(-c2ccccc2)c2cc(-c3ccc(N4CCCC4)nc3)ccc2[nH]1 subject_of_test="SF-539 CNS" category_label=No
molecule=CC(C)(C#N)c1cc(F)cc(C(=O)Nc2cc(Nc3ncccc3-c3ncnc4nc[nH]c34)ccc2F)c1 subject_of_test="SF-539 CNS" category_label=No
molecule=COc1ccc(/C=C/C(=O)C(CC2CCC2)C(=O)/C=C/c2ccc(OC)c(OC)c2)cc1OC subject_of_test="SF-539 CNS" category_label=Yes
molecule=C=C1C(=O)O[C@H]2[C@H]1CCC(/C=N/c1ncc(Br)cc1N)=C\CC[C@@]1(C)O[C@@H]21 subject_of_test="SF-539 CNS" category_label=No
molecule=CCCCCCCc1n(Cc2ccc3ccccc3c2)c2ccccc2[n+]1Cc1ccc2ccccc2c1 subject_of_test="SF-539 CNS" category_label=Yes
molecule="CCC1S/C(=N\\N=C(/C)c2ccc[nH]2)N(c2ccccc2)C1=O (stereo not given)" subject_of_test="SF-539 CNS" category_label=No
molecule=COc1ccccc1-c1ccc2nc(NC(=O)Nc3cc(C(F)(F)F)cc(C(F)(F)F)c3)sc2c1 subject_of_test="SF-539 CNS" category_label=Yes
molecule=COc1ccc(-c2cs/c(=N\N=C\c3ccc(O)cc3O)n2/N=C/c2ccc(O)cc2O)cc1 subject_of_test="SF-539 CNS" category_label=Yes

All values here come from PubChem BioAssay (NCI).
